Assayed System: human Fpn-GFP fusion (Homo sapiens)
Construct: expressed in transfected cells; host or cells: HEK-293 cell line #354 (derivative of HEK-293 Tet-ON Advanced, Clontech)
Sequence (Q9NP59 whole entry, the tested form may be a part): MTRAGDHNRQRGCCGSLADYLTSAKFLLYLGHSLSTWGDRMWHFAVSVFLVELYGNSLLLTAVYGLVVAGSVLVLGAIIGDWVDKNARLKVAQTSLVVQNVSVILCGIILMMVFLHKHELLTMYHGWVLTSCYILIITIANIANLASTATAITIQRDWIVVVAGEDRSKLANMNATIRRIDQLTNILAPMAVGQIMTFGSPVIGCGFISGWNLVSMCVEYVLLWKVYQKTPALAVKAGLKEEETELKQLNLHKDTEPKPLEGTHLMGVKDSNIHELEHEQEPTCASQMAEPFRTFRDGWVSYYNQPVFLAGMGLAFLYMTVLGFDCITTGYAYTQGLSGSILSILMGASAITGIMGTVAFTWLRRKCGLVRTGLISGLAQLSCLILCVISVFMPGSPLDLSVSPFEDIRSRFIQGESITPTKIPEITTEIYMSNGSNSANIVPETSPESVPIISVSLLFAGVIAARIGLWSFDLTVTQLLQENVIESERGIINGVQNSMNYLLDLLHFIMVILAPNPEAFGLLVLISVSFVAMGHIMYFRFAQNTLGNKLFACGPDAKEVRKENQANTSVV
Test Protocol: Inhibition of ferroportin mediated iron export activity in an iron response assay (BLAzer)
Format: cell-based
Settings: average of multiple measurements; HEK-293 cell line #354; read-out: BLAzer EC50
pEC50: −log10 of the molar value.
Returns one of Y or N; Y when pEC50 is >= 5.

INSERT INTO measurements (compound_smiles, answer_label) VALUES
  ('O=C(NCc1ncccc1Cl)c1cnn(CCNCc2nc3ccccc3[nH]2)c1', 'Y'),
  ('O=C(NCc1ncccc1F)c1cncc(C2CN(CCc3nc4ccccc4[nH]3)C2)c1', 'Y'),
  ('Cc1cc(CNC(=O)c2csc(CCNCc3nc4ccccc4[nH]3)n2)ccn1', 'N'),
  ('O=C(NCc1ncccc1F)c1cncc(CCNCCc2nc3cc(F)ccc3[nH]2)c1', 'Y'),
  ('N#Cc1ccc2[nH]c(CCNCCc3nc(C(=O)NCc4ncccc4F)co3)nc2c1', 'Y'),
  ('O=C(CNC(=O)C1CN(CCc2nc3ccccc3[nH]2)C1)NCc1ncccc1F', 'N'),
  ('O=C(NCc1ncccc1Cl)c1ncn(CCNCc2nc3ccccc3[nH]2)n1', 'Y'),
  ('O=C(NCc1ncccc1F)c1csc(CNCCc2nc3ccccc3[nH]2)n1', 'Y');

---

Assayed System: human Fpn (Homo sapiens)
Construct: FLAG (C); made in house; host or cells: Pichia pastoris
Test Protocol: Biophysical Ferroportin-Hepcidin Binding Assay (fluorescence polarization)
Settings: average of multiple measurements; 1 μM human Fpn, 20 nM TMR-hepcidin; read-out: FP IC50
Labelling field: enter Satisfied if recorded IC50 is less than 1000 nM. Enter Not satisfied if it equals or exceeds that cut-off.

INSERT INTO results (molecule, assayed_system, answer_label) VALUES
  ('O=C(NCc1c(F)cccc1F)c1csc(CCNCc2nc3ccccc3[nH]2)n1', 'human Fpn (Homo sapiens)', 'Not satisfied'),
  ('O=C(NCc1ncccc1F)c1coc(CCNCCc2nc3ccccc3[nH]2)n1', 'human Fpn (Homo sapiens)', 'Satisfied'),
  ('Cn1cncc1CNC(=O)c1csc(CCNCc2nc3ccccc3[nH]2)n1', 'human Fpn (Homo sapiens)', 'Not satisfied'),
  ('O=C(NCc1ncccc1F)c1cnn(CC2CCCN(Cc3nc4ccccc4[nH]3)C2)c1 (stereo not drawn)', 'human Fpn (Homo sapiens)', 'Not satisfied'),
  ('O=C(NCc1ncccc1F)c1coc(CCNCCc2nc3c(Cl)cccc3[nH]2)n1', 'human Fpn (Homo sapiens)', 'Satisfied'),
  ('O=C(NC1CCc2cccnc21)c1csc(CCNCc2nc3ccccc3[nH]2)n1 (stereo not drawn)', 'human Fpn (Homo sapiens)', 'Not satisfied'),
  ('O=C(NCc1ccccn1)c1csc(C2CCN(CCc3nc4ccccc4[nH]3)C2)n1 (stereo not drawn)', 'human Fpn (Homo sapiens)', 'Not satisfied'),
  ('O=C(NCC1CCCCC1)c1csc(CCNCc2nc3ccccc3[nH]2)n1', 'human Fpn (Homo sapiens)', 'Satisfied'),
  ('O=C(NC1CCc2cccnc21)c1csc(CCNCCc2nc3ccccc3[nH]2)n1 (stereo not drawn)', 'human Fpn (Homo sapiens)', 'Satisfied');

---

Recorded DC50, one value per entry.
Assayed System: human Fpn-GFP fusion (Homo sapiens)
Construct: expressed in transfected cells; host or cells: HEK-293 cell line #354 (derivative of HEK-293 Tet-ON Advanced, Clontech)
Test Protocol: Ferroportin Internalization and Degradation Assay (FACS)
Format: cell-based
Settings: average of multiple measurements; Fpn-GFP MFI, HEK-293 cell line #354, FACS; read-out: EC50 ferroportin internalization and degradation
Value Type: DC50 (µM)

INSERT INTO measurements (molecule, numeric_readout) VALUES
  ('O=C(NCC1CCCCN1)c1csc(CCNCc2nc3ccccc3[nH]2)n1 (stereo not shown)', 14.4),
  ('O=C(NCc1ncccc1F)c1cccc(CNCCc2nc3ccccc3[nH]2)c1', 1.83),
  ('O=C(NCc1ncccc1F)c1csc(CCNCC(F)(F)c2nc3ccccc3[nH]2)n1', 24.8),
  ('O=C(NCc1ncccc1F)c1cccc(CCN(CCc2nc3ccccc3[nH]2)CCc2nc3ccccc3[nH]2)n1', 0.813),
  ('O=C(NCc1ccccc1)c1csc(CCNCc2nc3ccccc3[nH]2)n1', 4.66),
  ('O=C(NCc1ncccc1F)c1cccc(CCNCc2nc3ccccc3[nH]2)n1', 20.7),
  ('O=C(NCc1ncccc1F)c1cccc(CCNCCc2nc3ccccc3[nH]2)n1', 25.3);

---

Reported values of IC50 for individual entries
Assayed System: human Fpn (Homo sapiens, UniProt Q9NP59)
Construct: FLAG (C); made in house; host or cells: Pichia pastoris
Test Protocol: Biophysical Ferroportin-Hepcidin Binding Assay (fluorescence polarization)
Settings: average of multiple measurements; 1 μM human Fpn, 20 nM TMR-hepcidin; read-out: FP IC50
Value Type: IC50 (nM)

INSERT INTO measurements (compound_smiles, numeric_readout) VALUES
  ('Cc1cc(CNC(=O)c2csc(CCNCc3nc4ccccc4[nH]3)n2)ccn1', 4330),
  ('Cn1cc(C(=O)NCc2ncccc2F)nc1CCNCc1nc2ccccc2[nH]1', 1880),
  ('Cn1ccnc1CNCCc1nc(C(=O)NCc2ccccc2)cs1', 10600),
  ('O=C(NCc1ccc(C(F)(F)F)nc1)c1csc(CCNCc2nc3ccccc3[nH]2)n1', 2970),
  ('O=C(NCc1ncccc1F)c1csc(CNCCc2nc3ccccc3[nH]2)n1', 250),
  ('O=C(c1csc(CCNCc2nc3ccccc3[nH]2)n1)N1CCc2ccccc2C1', 1470),
  ('O=C(NCc1cccnc1F)c1csc(CCNCc2nc3ccccc3[nH]2)n1', 2520),
  ('Cn1ccnc1CNC(=O)c1csc(CCNCc2nc3ccccc3[nH]2)n1', 1240),
  ('O=C(Cn1cc(C(=O)NCc2ncccc2F)cn1)NCCc1nc2ccccc2[nH]1', 9000);

---

Assayed System: human Fpn (Homo sapiens)
Construct: FLAG (C); made in house; host or cells: Pichia pastoris
Test Protocol: Biophysical Ferroportin-Hepcidin Binding Assay (fluorescence polarization)
Settings: average of multiple measurements; 1 μM human Fpn, 20 nM TMR-hepcidin; read-out: FP IC50
Procedure: This biophysical assay was developed to confirm inhibition of hepcidin binding to ferroportin (Fpn) more directly. Incubation of TMR-hepcidin with purified human Fpn isolated from Pichia pastoris yeast cells expressing human Fpn with a C-terminal FLAG affinity tag (Bonaccorsi di Patti, 2014) leads to increased fluorescence polarization (FP) of the TMR-hepcidin ligand. […]
pIC50: −log10 of the molar value.
# pIC50 per entry
Value Type: pIC50

INSERT INTO results (compound, assayed_system, value_type, numeric_readout) VALUES
  ('O=C(NCc1cccnc1)c1csc(CCNCc2nc3ccccc3[nH]2)n1 [Example 35]', 'human Fpn (Homo sapiens)', 'pIC50', 5.67),
  ('CC(NC(=O)c1csc(CCNCc2nc3ccccc3[nH]2)n1)c1ccccn1 (stereo not shown) [Example 80]', 'human Fpn (Homo sapiens)', 'pIC50', 5.64),
  ('O=C(NCc1ncccc1F)c1cnn(C2CN(Cc3nc4ccccc4[nH]3)C2)c1 [Example 136]', 'human Fpn (Homo sapiens)', 'pIC50', 5.16),
  ('O=C(NCC1CCCCN1)c1csc(CCNCc2nc3ccccc3[nH]2)n1 (stereo not shown) [Example 185]', 'human Fpn (Homo sapiens)', 'pIC50', 5.54),
  ('O=C(NCc1ccccc1)c1csc(CCNCc2ccccn2)n1 [Example 11]', 'human Fpn (Homo sapiens)', 'pIC50', 5.11),
  ('O=C(NCc1ccccc1OC(F)F)c1csc(CCNCc2nc3ccccc3[nH]2)n1 [Example 74]', 'human Fpn (Homo sapiens)', 'pIC50', 6.35),
  ('O=C(NCc1ncccc1F)c1csc([C@H]2[C@@H]3CN(CCc4nc5ccccc5[nH]4)C[C@@H]32)n1 [Example 218]', 'human Fpn (Homo sapiens)', 'pIC50', 5.66),
  ('O=C(NCc1ccnc(N2CCOCC2)c1)c1csc(CCNCc2nc3ccccc3[nH]2)n1 [Example 96]', 'human Fpn (Homo sapiens)', 'pIC50', 5.14),
  ('O=C(CCNCc1nc2ccccc2[nH]1)NCC(=O)NCc1ncccc1F [compound 172]', 'human Fpn (Homo sapiens)', 'pIC50', 5.47),
  ('O=C(NCc1ncccc1F)c1ncn(CCNCCc2nc3ccccc3[nH]2)n1 [Example 181]', 'human Fpn (Homo sapiens)', 'pIC50', 7.05);

---

Some molecules, each annotated with its measured log10 of IC50.
Assayed System: ferroportin (Fpn) (Mus musculus)
Construct: host or cells: J774 mouse macrophage cell line, Fe(III)-NTA induced
Sequence (Q9JHI9 whole entry): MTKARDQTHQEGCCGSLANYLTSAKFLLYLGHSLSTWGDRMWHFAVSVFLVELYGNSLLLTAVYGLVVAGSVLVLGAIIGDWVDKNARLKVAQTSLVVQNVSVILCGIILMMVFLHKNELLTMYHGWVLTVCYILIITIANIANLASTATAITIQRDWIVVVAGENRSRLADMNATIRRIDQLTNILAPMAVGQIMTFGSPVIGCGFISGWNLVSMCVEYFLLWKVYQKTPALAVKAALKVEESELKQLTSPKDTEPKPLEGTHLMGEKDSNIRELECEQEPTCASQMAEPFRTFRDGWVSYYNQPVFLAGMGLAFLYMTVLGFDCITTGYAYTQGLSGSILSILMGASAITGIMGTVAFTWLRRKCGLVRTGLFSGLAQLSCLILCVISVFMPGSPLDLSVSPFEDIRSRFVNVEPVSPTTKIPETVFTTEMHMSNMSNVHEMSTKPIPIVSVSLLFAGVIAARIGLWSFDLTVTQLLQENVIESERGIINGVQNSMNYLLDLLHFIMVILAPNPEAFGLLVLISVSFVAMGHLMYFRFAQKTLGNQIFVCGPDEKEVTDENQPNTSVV
Test Protocol: Hepcidin Internalization Assay (J774)
Format: cell-based
Settings: average of multiple measurements; inhibition of TMR-hepcidin (25 nM) internalization into J774 cells; read-out: J774 IC50
Value Type: log10 of IC50 (log10 of the value in nM)

INSERT INTO results (molecule, assayed_system, numeric_readout) VALUES
  ('O=C(NCc1ncccc1F)c1csc(CCNCCc2nc3ccccc3[nH]2)n1 [Example 94]', 'ferroportin (Fpn) (Mus musculus)', 1.08),
  ('O=C(NCc1ccccc1)c1csc(CCNCc2nc3cc(O)ccc3[nH]2)n1 [Example 30]', 'ferroportin (Fpn) (Mus musculus)', 4.11),
  ('O=C(NCc1nc2ccccc2[nH]1)c1csc(CCNCc2nc3ccccc3[nH]2)n1 [Example 60]', 'ferroportin (Fpn) (Mus musculus)', 3.38),
  ('O=C(NCc1ncccc1F)c1coc(C2CN(CCc3nc4ccccc4[nH]3)C2)n1 [Example 208]', 'ferroportin (Fpn) (Mus musculus)', 1.08),
  ('O=C(NCCc1ccccn1)c1csc(CCNCc2nc3ccccc3[nH]2)n1 [Example 76]', 'ferroportin (Fpn) (Mus musculus)', 2.53),
  ('N#Cc1ccc(CNC(=O)c2csc(CCNCc3nc4ccccc4[nH]3)n2)cn1 [Example 56]', 'ferroportin (Fpn) (Mus musculus)', 2.61),
  ('O=C(NCc1ncccc1F)c1coc(CNCCc2nc3ccccc3[nH]2)n1 [Example 206]', 'ferroportin (Fpn) (Mus musculus)', 2.26),
  ('CC(C)(CNCCc1nc(C(=O)NCc2ncccc2F)cs1)c1nc2ccccc2[nH]1 [Example 199]', 'ferroportin (Fpn) (Mus musculus)', 2.89),
  ('Cn1nccc1CNC(=O)c1csc(CCNCc2nc3ccccc3[nH]2)n1 [Example 88]', 'ferroportin (Fpn) (Mus musculus)', 2.89),
  ('O=C(NCc1ncccc1F)c1coc(CCNCCc2nc3c(F)cc(F)cc3[nH]2)n1 [Example 249]', 'ferroportin (Fpn) (Mus musculus)', 1.60),
  ('O=C(NCc1ncccc1F)c1csc(CCNCc2cccc3nc[nH]c23)n1 [Example 140]', 'ferroportin (Fpn) (Mus musculus)', 3.57),
  ('Cc1cccc(CNC(=O)c2csc(CCNCc3nc4ccccc4[nH]3)n2)n1 [Example 42]', 'ferroportin (Fpn) (Mus musculus)', 2.78),
  ('O=C(NCc1ccccc1)c1ccc(CCNCc2nc3ccccc3[nH]2)cc1 [Example 66]', 'ferroportin (Fpn) (Mus musculus)', 2.61),
  ('NCCCN(CCc1nc2ccccc2[nH]1)CCc1nc(C(=O)NCc2ncccc2F)cs1 [Example 163]', 'ferroportin (Fpn) (Mus musculus)', 2.92),
  ('O=C(NCc1cccnc1F)c1csc(CCNCc2nc3ccccc3[nH]2)n1 [Example 103]', 'ferroportin (Fpn) (Mus musculus)', 3.37),
  ('CC(C)(CNCCc1nc2ccccc2[nH]1)c1nc(C(=O)NCc2ncccc2F)cs1 [Example 242]', 'ferroportin (Fpn) (Mus musculus)', 3.95),
  ('O=C(NCc1ncccc1F)c1cc(CCNCc2nc3ccccc3[nH]2)ccn1 [compound 232]', 'ferroportin (Fpn) (Mus musculus)', 3.28),
  ('O=C(NCc1ncc(F)cc1F)c1csc(CCNCCc2nc3cc(F)ccc3[nH]2)n1 [Example 123]', 'ferroportin (Fpn) (Mus musculus)', 2.23);
